meta.source: patent US20230235012A1

Target: T1, human ICOS, full-length, expressed on transfected Expi293 cells (human, UniProt Q9Y6W8 21-199)
T1 construct: whole, on cells
T1 sequence (looked up): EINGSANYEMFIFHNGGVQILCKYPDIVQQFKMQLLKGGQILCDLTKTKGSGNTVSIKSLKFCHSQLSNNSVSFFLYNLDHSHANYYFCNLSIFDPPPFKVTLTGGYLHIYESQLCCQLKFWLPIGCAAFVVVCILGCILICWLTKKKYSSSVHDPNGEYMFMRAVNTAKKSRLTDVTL
Assay: flow cytometry, 100 nM, Expi293 cells with human ICOS
// reported MFI ratio to WT (ΔWT) for each item listed
Report the value in fold with no unit label.

These recorded examples may help you get a feel for the data.
| binder | unit-symbol | MFI ratio to WT (ΔWT) |
| --- | --- | --- |
| variant ICOSL IgV-Fc fusion N52H/N57Y/Q100R (Fc fusion, not shown: a dimerising Fc or GST) DTQEKEVRAMVGSDVELSCACPEGSRFDLNDVYVYWQTSESKTVVTYHIPQHSSLEYVDSRYRNRALMSPAGMLRGDFSLRLFNVTPQDEQKFHCLVLSRSLGFQEVLSVEVTLHVAANFSV | fold | 0.94 |
| variant ICOSL IgV-Fc fusion N52Q/N57S/Q100A (Fc fusion) DTQEKEVRAMVGSDVELSCACPEGSRFDLNDVYVYWQTSESKTVVTYHIPQQSSLESVDSRYRNRALMSPAGMLRGDFSLRLFNVTPQDEQKFHCLVLSASLGFQEVLSVEVTLHVAANFSVGSGGGGSEPKSSDKTHTCPPCPAPEAEGAPSVFLFPPKPKDTLMISRTPEVTCVVVDVSHEDPEVKFNWYVDGVEVHNAKTKPREEQYNSTYRVVSVLTVLHQDWLNGKEYKCKVSNKALPAPIEKTISKAKGQPREPQVYTLPPSREEMTKNQVSLTCLVKGFYPSDIAVEWESNGQPENNYKTTPPVLDSDGSFFLYSKLTVDKSRWQQGNVFSCSVMHEALHNHYTQKSLSLSPG | fold | 1.24 |
| variant ICOSL IgV-Fc fusion N52V/N57T/Q100L (Fc fusion) DTQEKEVRAMVGSDVELSCACPEGSRFDLNDVYVYWQTSESKTVVTYHIPQVSSLETVDSRYRNRALMSPAGMLRGDFSLRLFNVTPQDEQKFHCLVLSLSLGFQEVLSVEVTLHVAANFSVGSGGGGSEPKSSDKTHTCPPCPAPEAEGAPSVFLFPPKPKDTLMISRTPEVTCVVVDVSHEDPEVKFNWYVDGVEVHNAKTKPREEQYNSTYRVVSVLTVLHQDWLNGKEYKCKVSNKALPAPIEKTISKAKGQPREPQVYTLPPSREEMTKNQVSLTCLVKGFYPSDIAVEWESNGQPENNYKTTPPVLDSDGSFFLYSKLTVDKSRWQQGNVFSCSVMHEALHNHYTQKSLSLSPG | fold | 0.14 |
| variant ICOSL IgV-Fc fusion N52S/N57H/Q100E (Fc fusion) DTQEKEVRAMVGSDVELSCACPEGSRFDLNDVYVYWQTSESKTVVTYHIPQSSSLEHVDSRYRNRALMSPAGMLRGDFSLRLFNVTPQDEQKFHCLVLSESLGFQEVLSVEVTLHVAANFSVGSGGGGSEPKSSDKTHTCPPCPAPEAEGAPSVFLFPPKPKDTLMISRTPEVTCVVVDVSHEDPEVKFNWYVDGVEVHNAKTKPREEQYNSTYRVVSVLTVLHQDWLNGKEYKCKVSNKALPAPIEKTISKAKGQPREPQVYTLPPSREEMTKNQVSLTCLVKGFYPSDIAVEWESNGQPENNYKTTPPVLDSDGSFFLYSKLTVDKSRWQQGNVFSCSVMHEALHNHYTQKSLSLSPG | fold | 1.22 |
| variant ICOSL IgV-Fc fusion N52S/N57Y/Q100S (Fc fusion) DTQEKEVRAMVGSDVELSCACPEGSRFDLNDVYVYWQTSESKTVVTYHIPQSSSLEYVDSRYRNRALMSPAGMLRGDFSLRLFNVTPQDEQKFHCLVLSSSLGFQEVLSVEVTLHVAANFSVGSGGGGSEPKSSDKTHTCPPCPAPEAEGAPSVFLFPPKPKDTLMISRTPEVTCVVVDVSHEDPEVKFNWYVDGVEVHNAKTKPREEQYNSTYRVVSVLTVLHQDWLNGKEYKCKVSNKALPAPIEKTISKAKGQPREPQVYTLPPSREEMTKNQVSLTCLVKGFYPSDIAVEWESNGQPENNYKTTPPVLDSDGSFFLYSKLTVDKSRWQQGNVFSCSVMHEALHNHYTQKSLSLSPG | fold | 1.06 |
| variant ICOSL IgV-Fc fusion N52S/N57Y/Q100M (Fc fusion) DTQEKEVRAMVGSDVELSCACPEGSRFDLNDVYVYWQTSESKTVVTYHIPQSSSLEYVDSRYRNRALMSPAGMLRGDFSLRLFNVTPQDEQKFHCLVLSMSLGFQEVLSVEVTLHVAANFSVGSGGGGSEPKSSDKTHTCPPCPAPEAEGAPSVFLFPPKPKDTLMISRTPEVTCVVVDVSHEDPEVKFNWYVDGVEVHNAKTKPREEQYNSTYRVVSVLTVLHQDWLNGKEYKCKVSNKALPAPIEKTISKAKGQPREPQVYTLPPSREEMTKNQVSLTCLVKGFYPSDIAVEWESNGQPENNYKTTPPVLDSDGSFFLYSKLTVDKSRWQQGNVFSCSVMHEALHNHYTQKSLSLSPG | fold | 1.43 |
| variant ICOSL IgV-Fc fusion N52S/N57M/Q100S (Fc fusion) DTQEKEVRAMVGSDVELSCACPEGSRFDLNDVYVYWQTSESKTVVTYHIPQSSSLEMVDSRYRNRALMSPAGMLRGDFSLRLFNVTPQDEQKFHCLVLSSSLGFQEVLSVEVTLHVAANFSVGSGGGGSEPKSSDKTHTCPPCPAPEAEGAPSVFLFPPKPKDTLMISRTPEVTCVVVDVSHEDPEVKFNWYVDGVEVHNAKTKPREEQYNSTYRVVSVLTVLHQDWLNGKEYKCKVSNKALPAPIEKTISKAKGQPREPQVYTLPPSREEMTKNQVSLTCLVKGFYPSDIAVEWESNGQPENNYKTTPPVLDSDGSFFLYSKLTVDKSRWQQGNVFSCSVMHEALHNHYTQKSLSLSPG | fold | 1.47 |

--- query ---
// recorded MFI ratio to WT (ΔWT) for variant ICOSL IgV-Fc fusion N52S/N57L/Q100S (Fc fusion) DTQEKEVRAMVGSDVELSCACPEGSRFDLNDVYVYWQTSESKTVVTYHIPQSSSLELVDSRYRNRALMSPAGMLRGDFSLRLFNVTPQDEQKFHCLVLSSSLGFQEVLSVEVTLHVAANFSVGSGGGGSEPKSSDKTHTCPPCPAPEAEGAPSVFLFPPKPKDTLMISRTPEVTCVVVDVSHEDPEVKFNWYVDGVEVHNAKTKPREEQYNSTYRVVSVLTVLHQDWLNGKEYKCKVSNKALPAPIEKTISKAKGQPREPQVYTLPPSREEMTKNQVSLTCLVKGFYPSDIAVEWESNGQPENNYKTTPPVLDSDGSFFLYSKLTVDKSRWQQGNVFSCSVMHEALHNHYTQKSLSLSPG : 1.27
